Just for reference, patent US20120129843A1 is where these values come from.

study.target: proMMP9(20-445;ΔFnII) (SEQ ID NO:6) (Homo sapiens, UniProt P14780, DEL216-390)
Construct: start methionine (N)
test: ThermoFluor binding assay with proMMP9(20-445;ΔFnII)
pKd: −log10 of the molar value.
Please enter fulfilled where pKd is greater than or equal to 6, and not fulfilled where it is lower.

{"columns": ["input.smiles", "class.name"],
 "data": [
  ["CC(C)Oc1ccc(S(N)(=O)=O)cc1Nc1nc(-c2ccc(N3CCn4ccnc4C3)nc2)cs1", "fulfilled"],
  ["CC(C)Oc1ccc(S(N)(=O)=O)cc1Nc1nc(-c2cccnc2)cs1", "not fulfilled"],
  ["CC(C)Oc1ccc(C(N)=O)cc1Nc1nc(-c2ccnc(Cl)c2)cs1", "fulfilled"]
]}

[Q] // inclusive: pKd at least 6? input: "CC(C)Oc1ccc(S(N)(=O)=O)cc1Nc1nc(-c2ccc(N3CCN(CCC(F)(F)F)CC3)nc2)cs1"
[A] fulfilled

[Q] Is the recorded value of pKd equal to or greater than 6 for this compound? "CC(C)Oc1ccc(S(N)(=O)=O)cc1Nc1nc(-c2ccc(N3CCNC(C)(C)C3)nc2)cs1"
[A] fulfilled

###

Field: IC50. Provide a value for each of the molecules that follow.
study.target: full-length proMMP9(1-707) (SEQ ID NO:1), activation by catalytic MMP3 (Homo sapiens, UniProt P14780, R574P)
Construct: E. coli (MMP3)
test: proMMP9/MMP3 P126 Activation Assay
Method: proMMP9/MMP3 P126 Activation Assay The reaction volume was 50 μL. […] Reactivity of residual MMP3 towards P-126 substrate was minimal under these conditions.
One number for each entry, in µM.

{"columns": ["molecule", "IC50, µM"],
 "data": [
  ["CC(C)Oc1ccc(S(N)(=O)=O)cc1Nc1nc(-c2ccc(C(=O)N3CCC(N(C)C)CC3)nc2)cs1 [Example 48]", 1.1]
]}

Pending molecule:
[Q] Reported IC50 for CCOc1ccc(C(N)=O)cc1Nc1nc(-c2cccnc2)cs1 [Example 2] : what is it?
[A] 0.74

###

Field: Kd. Provide a value for each of the molecules that follow.
study.target: proMMP9(20-445;ΔFnII) (SEQ ID NO:6) (Homo sapiens, UniProt P14780, DEL216-390)
Construct: start methionine (N)
Sequence (P14780 with tags, fused parts or gaps DEL216-390): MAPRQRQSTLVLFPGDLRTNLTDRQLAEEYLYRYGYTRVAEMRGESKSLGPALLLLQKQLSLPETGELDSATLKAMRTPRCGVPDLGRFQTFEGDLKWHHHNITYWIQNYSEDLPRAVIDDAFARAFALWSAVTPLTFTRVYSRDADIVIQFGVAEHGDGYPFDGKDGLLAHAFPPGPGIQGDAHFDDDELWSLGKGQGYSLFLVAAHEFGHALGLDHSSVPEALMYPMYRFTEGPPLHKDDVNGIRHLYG
test: ThermoFluor binding assay with proMMP9(20-445;ΔFnII)
Numbers only, in nM.

For orientation, consider the following solved cases.
{"columns": ["input.smiles", "Kd (nM)"],
 "data": [
  ["CC(C)Oc1ccc(S(N)(=O)=O)cc1Nc1nc(-c2ccc(N3CCN(C(C)C)CC3)nc2)cs1", 70],
  ["CC(C)Oc1ccc(S(N)(=O)=O)cc1Nc1nc(-c2ccc(C3CCNCC3)nc2)cs1", 130],
  ["COc1cc(C)c(C(N)=O)cc1Nc1nc(-c2ccc(N3CCN(C)CC3)nc2)cs1", 1200]
]}

Alright, here's another molecule for you.
[Q] # Kd lookup, item "CC(C)Oc1ccc(S(N)(=O)=O)cc1Nc1nc(-c2ccc(N3C[C@@H](C)N[C@@H](C)C3)nc2)cs1"
[A] 71

###

I'd appreciate it if you could supply pIC50 values for the items below.
study.target: full-length proMMP9(1-707) (SEQ ID NO:1), activation by catalytic MMP3 (Homo sapiens, UniProt P14780, R574P)
Construct: E. coli (MMP3)
test: proMMP9/MMP3 P126 Activation Assay
Numbers only, as −log10 of the molar value.

{"columns": ["compound", "pIC50"],
 "data": [
  ["CC(C)Oc1ccc(S(N)(=O)=O)cc1Nc1nc(-c2ccc(C3=CCNCC3)nc2)cs1", 6.85],
  ["CC(C)Oc1ccc(S(N)(=O)=O)cc1Nc1nc(-c2ccc(N3CCN(C4CC4)CC3)nc2)cs1", 6.52],
  ["CC(C)Oc1ccc(S(N)(=O)=O)cc1Nc1nc(-c2ccc(C(=O)NC3CCCN(C)C3)nc2)cs1 (centres unmarked)", 6.46]
]}

Could you report pIC50 for every entry in the following list?
1. CC(C)Oc1ccc(C(N)=O)cc1Nc1nc(-c2cncc(Br)c2)cs1
2. CC(C)Oc1ccc(S(N)(=O)=O)cc1Nc1nc(-c2ccc(C(=O)NC3CC(C)(C)N(C)C(C)(C)C3)nc2)cs1
3. CC(C)Oc1ccc(S(N)(=O)=O)cc1Nc1nc(-c2ccc(C(=O)N3CCN(C)CC3)nc2)cs1
4. CC(C)Oc1ccc(S(N)(=O)=O)cc1Nc1nc(-c2ccc(N3CCN(S(C)(=O)=O)CC3)nc2)cs1

[A]
1. 5.34
2. 6.59
3. 5.89
4. 6.85

[Q] Bench note: what pIC50 did "CC(C)Oc1ccc(S(N)(=O)=O)cc1Nc1nc(-c2ccc(NCCN(C)C)nc2)cs1" show?
[A] 6.82

###

Please go through the items and note down their IC50.
study.target: full-length proMMP9(1-707) (SEQ ID NO:1), activation by catalytic MMP3 (Homo sapiens, UniProt P14780, R574P)
Construct: E. coli (MMP3)
test: proMMP9/MMP3 P126 Activation Assay
Answers are plain numbers, in nM.

Completed entries (count: 3):
{"columns": ["input.smiles", "IC50 (nM)"],
 "data": [
  ["CC(C)Oc1ccc(S(N)(=O)=O)cc1Nc1nc(-c2ccc(N3CCNC(=O)C3)nc2)cs1", 120],
  ["CCOc1ccc(-c2ncco2)cc1Nc1nc(-c2cccnc2)cs1", 670],
  ["COc1ccc(C(N)=O)cc1Nc1nc(-c2cccnc2)cs1", 5000]
]}

[Q] # input compound: "CC(C)Oc1ccc(C(N)=O)cc1Nc1nc(-c2ccnc(N3CCN(C)CC3)c2)cs1" ; wanted: its IC50
[A] 210

###

study.target: proMMP13(1-268) (SEQ ID NO:7), activation by plasmin (Homo sapiens, UniProt P45452)
Construct: 6xHis (C); made in house; host or cells: HEK293 (proMMP13, secreted)
test: ProMMP13/Plasmin P126 Activation Assay
Format: biochemical
parameter: IC50 (nM)
Answers are plain numbers, in nM.

[Q] Give proMMP13(1-268) (SEQ ID NO:7), activation by plasmin (Homo sapiens, UniProt P45452) IC50 for "CC(C)Oc1ccc(C(N)=O)cc1Nc1nc(-c2ccc(N3CCN(C)CC3)nc2)cs1"
[A] 900

###

study.target: proMMP9(20-445;ΔFnII) (SEQ ID NO:6) (Homo sapiens, UniProt P14780, DEL216-390)
Construct: start methionine (N)
test: ThermoFluor binding assay with proMMP9(20-445;ΔFnII)
For each record, write down the corresponding pKd.
Give bare numbers, as −log10 of the molar value.

{"columns": ["compound", "study.target", "pKd"],
 "data": [
  ["CN1CCN(c2cc(-c3csc(Nc4cc(C(N)=O)ccc4OC(F)(F)F)n3)ccn2)CC1", "proMMP9(20-445;ΔFnII) (SEQ ID NO:6) (Homo sapiens, UniProt P14780, DEL216-390)", 5.89],
  ["CCN1CCN(C(=O)c2ccc(-c3csc(Nc4cc(S(N)(=O)=O)ccc4OC(C)C)n3)cn2)CC1", "proMMP9(20-445;ΔFnII) (SEQ ID NO:6) (Homo sapiens, UniProt P14780, DEL216-390)", 6.05],
  ["COc1ccc(CC(N)=O)cc1Nc1nc(-c2cccnc2)cs1", "proMMP9(20-445;ΔFnII) (SEQ ID NO:6) (Homo sapiens, UniProt P14780, DEL216-390)", 4.28],
  ["COCCCc1ccc(-c2csc(Nc3cc(S(N)(=O)=O)ccc3OC(C)C)n2)cn1", "proMMP9(20-445;ΔFnII) (SEQ ID NO:6) (Homo sapiens, UniProt P14780, DEL216-390)", 6.37],
  ["COc1ccc(C(N)=O)cc1Nc1nc(-c2ccc(N3CCN(C)CC3)nc2)cs1", "proMMP9(20-445;ΔFnII) (SEQ ID NO:6) (Homo sapiens, UniProt P14780, DEL216-390)", 6.44],
  ["CC(C)Oc1ccc(S(N)(=O)=O)cc1Nc1nc(-c2ccc(N3CCNC(C(F)(F)F)C3)nc2)cs1 (centres unmarked)", "proMMP9(20-445;ΔFnII) (SEQ ID NO:6) (Homo sapiens, UniProt P14780, DEL216-390)", 6.82]
]}

From here, focus on the item given below.
[Q] Which pKd is reported for this compound? "CC(C)Oc1ccc(C(N)=O)cc1Nc1nc(-c2cccnc2)cs1"
[A] 6.80
